Test system: 439559-082-T-J2-PDC complex spheroid growth;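 note: spheroids exposed to agents for 7 days starting day 3 after seeding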
Experiment: Anticancer human tumor 439559-082-T-J2-PDC patient-derived colon adenocarcinoma cell line growth inhibition [Asc]
Conditions: curve of first compound; second compound 0.1 µM
Text: Multicellular complex tumor spheroid response to apoptosis pathway targeting inhibitors Alrizomadlin, Pelcitoclax, and Dasminapant in combination with a variety of drugs and investigational agents in selected tumor cell lines […] Compounds. […] If the clinical Cmax for an agent had not been determined, the highest concentration tested was 10 microM. […]
quantity.name: IC50

What does the data say about its IC50? Entry: COc1c(OCCCN2CCOCC2)ccc2c3n(c(=NC(=O)c4cnc(N)nc4)nc12)CCN3 + CNC(C)C(=O)NC1CN(S(=O)(=O)c2cccc(S(=O)(=O)N3CCC4CCC(C(=O)NC(c5ccccc5)c5ccccc5)N4C(=O)C(NC(=O)C(C)NC)C3)c2)CCC2CCC(C(=O)NC(c3ccccc3)c3ccccc3)N2C1=O
> 1000 nM

Given C=C(F)C(=O)N1CCN(c2nc(OCC3CCCN3C)nc3c2CCN(c2cccc4cccc(Cl)c24)C3)CC1CC#N (stereo unspecified) + Cc1c(S(C)(=O)=O)c(-c2cc(F)cc(N3CCN(c4ccc(NS(=O)(=O)c5ccc(NC(CCN6CCC(C(=O)OCCCP(=O)(O)O)CC6)CSc6ccccc6)c(S(=O)(=O)C(F)(F)F)c5)cc4)CC3)c2)c(-c2ccc(Cl)cc2)n1C(C)C , state its recorded IC50.
5150 nM

Please give the measured IC50 for this molecule: CNC(C)C(=O)NC1CN(S(=O)(=O)c2cccc(S(=O)(=O)N3CCC4CCC(C(=O)NC(c5ccccc5)c5ccccc5)N4C(=O)C(NC(=O)C(C)NC)C3)c2)CCC2CCC(C(=O)NC(c3ccccc3)c3ccccc3)N2C1=O (stereo unspecified) + Cc1c(S(C)(=O)=O)c(-c2cc(F)cc(N3CCN(c4ccc(NS(=O)(=O)c5ccc(NC(CCN6CCC(C(=O)OCCCP(=O)(O)O)CC6)CSc6ccccc6)c(S(=O)(=O)C(F)(F)F)c5)cc4)CC3)c2)c(-c2ccc(Cl)cc2)n1C(C)C
> 1000 nM

meta.source: PubChem BioAssay AID1963423
